- Study system: HiBiT-BRM fusion protein in stable HeLa cell line (Homo sapiens, UniProt P51531)
- Construct: expressed in transfected cells
- Sequence (P51531 whole entry, the tested form may be a part): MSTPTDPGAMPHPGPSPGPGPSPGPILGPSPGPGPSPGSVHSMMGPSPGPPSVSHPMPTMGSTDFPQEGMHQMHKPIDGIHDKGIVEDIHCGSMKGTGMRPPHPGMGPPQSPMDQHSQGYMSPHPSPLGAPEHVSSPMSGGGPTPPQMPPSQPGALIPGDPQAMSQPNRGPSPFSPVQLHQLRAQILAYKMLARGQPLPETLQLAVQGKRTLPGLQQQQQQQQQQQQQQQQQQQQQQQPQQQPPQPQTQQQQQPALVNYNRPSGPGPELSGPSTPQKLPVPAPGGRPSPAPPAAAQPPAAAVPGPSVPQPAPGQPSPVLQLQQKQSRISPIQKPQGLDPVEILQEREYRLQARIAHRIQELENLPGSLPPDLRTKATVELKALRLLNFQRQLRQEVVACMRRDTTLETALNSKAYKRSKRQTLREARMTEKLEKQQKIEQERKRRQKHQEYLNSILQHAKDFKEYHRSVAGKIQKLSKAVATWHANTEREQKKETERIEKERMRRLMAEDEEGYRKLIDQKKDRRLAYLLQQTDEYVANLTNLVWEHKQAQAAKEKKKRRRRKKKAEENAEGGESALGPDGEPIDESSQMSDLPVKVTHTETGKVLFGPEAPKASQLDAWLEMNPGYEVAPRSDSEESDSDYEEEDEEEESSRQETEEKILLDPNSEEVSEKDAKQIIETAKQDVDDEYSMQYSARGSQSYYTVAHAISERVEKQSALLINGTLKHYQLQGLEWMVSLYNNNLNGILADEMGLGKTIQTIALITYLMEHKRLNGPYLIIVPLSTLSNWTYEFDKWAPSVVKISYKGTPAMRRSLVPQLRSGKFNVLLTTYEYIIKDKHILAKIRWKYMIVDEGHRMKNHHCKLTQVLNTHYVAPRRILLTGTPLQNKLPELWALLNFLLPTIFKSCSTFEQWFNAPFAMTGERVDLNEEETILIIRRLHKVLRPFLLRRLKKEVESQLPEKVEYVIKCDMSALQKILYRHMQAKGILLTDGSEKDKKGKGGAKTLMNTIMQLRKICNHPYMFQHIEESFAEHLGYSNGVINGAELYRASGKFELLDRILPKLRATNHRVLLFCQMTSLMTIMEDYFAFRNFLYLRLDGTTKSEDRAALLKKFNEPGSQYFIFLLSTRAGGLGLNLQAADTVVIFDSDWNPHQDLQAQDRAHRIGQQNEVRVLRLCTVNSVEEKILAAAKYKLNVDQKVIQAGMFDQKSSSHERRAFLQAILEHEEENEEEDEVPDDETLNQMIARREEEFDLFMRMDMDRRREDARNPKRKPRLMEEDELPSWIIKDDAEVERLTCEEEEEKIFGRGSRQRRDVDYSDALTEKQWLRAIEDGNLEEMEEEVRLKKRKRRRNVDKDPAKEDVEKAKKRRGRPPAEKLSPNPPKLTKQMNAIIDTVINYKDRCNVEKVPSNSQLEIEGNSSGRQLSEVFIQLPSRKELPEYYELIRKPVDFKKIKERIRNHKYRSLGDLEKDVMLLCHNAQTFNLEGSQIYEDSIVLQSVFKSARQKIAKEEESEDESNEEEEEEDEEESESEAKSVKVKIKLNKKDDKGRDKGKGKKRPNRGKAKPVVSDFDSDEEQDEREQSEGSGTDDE
- Assay method text: HiBiT-BRM cell-based degradation assay (Nano-Glo HiBiT Lytic Detection, 24 h)
- Design: scale not given here
- Test parameters: HeLa HiBiT-BRM cells, read-out: BRM HiBit Degradation IC50
Entries and their measured DC50 follow.

Worked examples, 4 compounds total:
Cc1ncsc1-c1ccc([C@H](C)NC(=O)[C@@H]2C[C@@H](O)CN2C(=O)[C@@H](c2cc(N3CC[C@@]4(CCN(c5ccc6cc(-c7ccccc7O)nnc6c5)C4)C3)no2)C(C)C)cc1 [Compound 99] ... < 10 nM
Cc1ncsc1-c1ccc([C@H](C)NC(=O)[C@@H]2C[C@@H](O)CN2C(=O)[C@@H](c2cc(N3CC4(CN(c5ccc6cc(-c7ccccc7O)nnc6c5)C4)C3)sn2)C(C)C)cc1 [Compound 195] ... < 10 nM
Cc1ncsc1-c1ccc([C@H](C)NC(=O)[C@@H]2C[C@@H](O)CN2C(=O)[C@H](C(C)C)n2cc(N3CC4(CN(c5ccc6cc(-c7ccccc7O)nnc6c5)C4)C3)nn2)cc1 [Compound 169] ... < 10 nM
C#Cc1ccc(CNC(=O)[C@@H]2C[C@@H](O)CN2C(=O)[C@H](C(C)C)n2cc(N3CC4(CN(c5ccc6cc(-c7ccccc7O)nnc6c5)C4)C3)nn2)c(OC)c1 [Compound 238] ... < 10 nM

Kindly consider the entry below.
Name the recorded DC50 for Cc1ncsc1-c1ccc([C@H](C)NC(=O)[C@@H]2C[C@@H](O)CN2C(=O)[C@H](c2cc(-c3cnc(N4CC(c5ccc6nnc(-c7ccccc7O)cc6c5)C4)nc3)no2)C(C)C)cc1 [Compound 5] .
> 100 nM

Data provenance is patent US20260193264A1.
